The values you see were collected from paper doi:10.1101/718155.

biological target: S100A7; experiment: FP; direct
pKd: −log10 of the molar value.
measured_attribute: pKd

P: RRLLFYKYVYKR [NCX1 (254-265) peptide]
Q: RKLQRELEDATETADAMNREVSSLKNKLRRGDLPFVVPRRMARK [NMIIA (1894-1937) peptide]
Problem: Two entries are listed, P and Q . Which one carries the higher pKd? Mark your selection by writing its label.
Solution: Q
(Q: 4.88, P: 4.52)
